- target-under-test: human Nav1.1 (Homo sapiens)
- Construct: host or cells: HEK293
- assay: Amplification of Nav1.1-derived voltage-gated sodium current (Nav1.1 current), automated patch clamp (Test 1)
- Format: cell-based
- condition-details: Concentration for evaluation 1 μM; HEK293 cell line stably expressing human Nav1.1
quantity: Nav1.1 current amplification rate (%)

# example entries with known answers
{"columns": ["compound", "Nav1.1 current amplification rate (%)"],
 "data": [
  ["CN(CC1CC(F)(F)C1)c1cnc2cnn(CC(=O)Nc3ccn4ncnc4c3)c2n1 [Example 624]", 61],
  ["CC1CC=C(c2ccc(=O)n(CC(=O)Nc3ccnc(C#N)c3)n2)CC1 (stereo not shown) [Example 362]", 133]
]}

a. Cc1cc(NC(=O)Cn2nc(C3=CCC(C)CC3)ccc2=O)cn2ncnc12 (stereo not shown) [Example 349]
b. CN(c1cnc2cnn(CC(=O)Nc3cccc(N4CCOCC4)c3F)c2n1)C1CCCC1 [Example 671]
Quick check, higher Nav1.1 current amplification rate (%) between a and b ? I would appreciate it if you answered with the label of your choice. a
(a: 101%, b: 34%)
